The measured values listed here are drawn from patent US7462717B2.

Target sequence: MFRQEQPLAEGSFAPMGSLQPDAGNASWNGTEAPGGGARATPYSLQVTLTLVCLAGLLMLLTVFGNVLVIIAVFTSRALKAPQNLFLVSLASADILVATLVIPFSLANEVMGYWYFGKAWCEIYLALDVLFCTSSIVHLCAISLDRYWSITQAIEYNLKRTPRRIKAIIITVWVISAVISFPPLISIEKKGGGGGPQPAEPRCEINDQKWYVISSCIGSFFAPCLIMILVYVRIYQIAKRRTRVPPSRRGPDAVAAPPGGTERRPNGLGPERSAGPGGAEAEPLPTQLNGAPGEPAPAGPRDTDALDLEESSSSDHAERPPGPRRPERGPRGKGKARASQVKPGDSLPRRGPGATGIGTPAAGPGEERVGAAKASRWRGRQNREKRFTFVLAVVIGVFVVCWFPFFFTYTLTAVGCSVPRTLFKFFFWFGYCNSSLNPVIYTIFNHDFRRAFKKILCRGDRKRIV
We begin with a simple list: items and their reported IC50.
The response must be a number in nM with no trailing unit.

Example entries and their recorded answers appear below.
>>> reported_result("CC(=Cc1ccccc1)CN1CCN(CC2ON=C3c4cccc(NCCN5CCCC5)c4OCC32)CC1 (stereo not drawn) [Compound 16]")
39.8
>>> reported_result("COc1cccc2c1OC[C@@H]1C2=NO[C@H]1CN1CCN(C/C(C)=C/c2ccccc2)CC1 (relative stereo) [Compound 6]")
7.94
>>> reported_result("COc1cc2c(c(C)c1OC)OC[C@@H]1C2=NO[C@H]1CN1CCN(C/C(C)=C/c2ccccc2)CC1 (single isomer, unassigned) [Compound 3]")
1.58
>>> reported_result("CCNC(=O)OCCOc1cccc2c1OCC1C2=NOC1CN1CCN(CC(C)=Cc2ccccc2)CC1 (stereo not drawn) [Compound 10]")
79.4
>>> reported_result("CC(=Cc1ccccc1)CN1CCN(CC2ON=C3c4cccc(NCc5ccccc5)c4OCC32)CC1 (stereo not drawn) [Compound 23]")
63.1
>>> reported_result("CC(=Cc1ccccc1)CN1CCN(CC2ON=C3c4c(O)cccc4OCC32)CC1 (stereo not drawn) [Compound 9]")
25.1

Just so you know, measured IC50 for COCC(=O)OCCOc1cccc2c1OCC1C2=NOC1CN1CCN(CC(C)=Cc2ccccc2)CC1 (single isomer, unassigned) [Compound 25] came out at 39.8

Just so you know, measured IC50 for COC(=O)c1c(OC)c(OC)cc2c1OCC1C2=NOC1CN1CCN(C/C(C)=C/c2ccccc2)CC1 (single isomer, unassigned) [Compound 5] came out at 2

Just so you know, measured IC50 for COCC(=O)OCCOc1cccc2c1C1=NOC(CN3CCN(CC(C)=Cc4ccccc4)CC3)C1CO2 (stereo not drawn) [Compound 14] came out at 2.51
